procedure-details: Plasma pharmacokinetics of GSK3532795, part A
Type: in vivo
test-settings: human, oral, 5 mg
observed-property: Tmax (h)
Answers are plain numbers, in h.

Would you kindly share the measured Tmax for C=C(C)[C@@H]1CC[C@]2(NCCN3CCS(=O)(=O)CC3)CC[C@]3(C)[C@H](CC[C@@H]4[C@@]5(C)CC=C(c6ccc(C(=O)O)cc6)C(C)(C)[C@@H]5CC[C@]43C)[C@@H]12 [GSK3532795] ?
3

====

procedure-details: Plasma pharmacokinetics of GSK3532795, part A
Type: in vivo
test-settings: human, oral, 120 mg
observed-property: half-life (h)
Answers are plain numbers, in h.

Would you kindly share the measured half-life for C=C(C)[C@@H]1CC[C@]2(NCCN3CCS(=O)(=O)CC3)CC[C@]3(C)[C@H](CC[C@@H]4[C@@]5(C)CC=C(c6ccc(C(=O)O)cc6)C(C)(C)[C@@H]5CC[C@]43C)[C@@H]12 [GSK3532795] ?
34.9

Data provenance: paper PMC5848258
